System: hER
Test: Fluorescence-based competitive binding assay for hER (displacement of fluormone ES2)
Parameters: species or system human
Details: RBA = IC50 of tamoxifen/IC50 of test molecule; tamoxifen set at 1
Method: The estrogen receptor competitor assay kits (Panvera, Madison, Wis.) were used to determine the ability of test molecules to displace the fluormone, ES2, from hER -ES2 or hER -ES2 complex. […] The reaction was incubated at room temperature for 1 hr and the polarization values were measured by using fluorescence microplate reader, Polarion (Tecan, Research Triangle Park, N.C.) with excitation wavelength 495 nm and emission wavelength 535 nm. […]
Param threshold (0.2) applies to Relative Binding Affinity; output label 1 when value >= threshold, label 0 when value < threshold.

>  <compound>
CCCCCCCCNC(=O)CCCCCCCCCCOCC1Cc2ccccc2CN1C(=O)c1cccc(F)c1 (stereo not drawn) [Compound 11]

>  <labelValue>
label 0

$$$$
>  <compound>
CCCCNC(=O)CCCCCCCCCCOCC1Cc2ccccc2CN1C(=O)c1ccccc1F (stereo not drawn) [Compound 1]

>  <labelValue>
label 1

$$$$
>  <compound>
CCCCNC(=O)CCCCCCCCCCOCC1Cc2ccccc2CN1C(=O)c1cccc(OC)c1 (stereo not drawn) [Compound 4]

>  <labelValue>
label 0

$$$$
>  <compound>
CCCCNC(=O)CCCCCCCCCCOCC1Cc2ccccc2CN1C(=O)Cc1cccc(F)c1 (stereo not drawn) [Compound 12]

>  <labelValue>
label 1

$$$$
>  <compound>
CCCCNC(=O)CCCCCCCCCCOCC1Cc2ccccc2CN1C(=O)c1cccc(O)c1 (stereo not drawn) [Compound 6]

>  <labelValue>
label 1

$$$$

Hello, I need to know if CCCCNC(=O)CCCCCCCCCCOCC1Cc2ccccc2CN1C(=O)c1ccc(O)cc1 (stereo not drawn) [Compound 7] has measured Relative Binding Affinity not below 0.2. Thanks!
label 1

Item CCCCNC(=O)CCCCCCCCCCOCC1Cc2ccccc2CN1C(=O)c1cccc(C)c1 (stereo not drawn) [Compound 8] with Relative Binding Affinity of 0.2 or above?
label 0

Determine whether this compound has Relative Binding Affinity no lower than 0.2: CCCCNC(=O)CCCCCCCCCCOCC1Cc2ccccc2CN1C(=O)c1cccc(F)c1 (stereo not drawn) [Compound 2]
label 1

Determine whether this compound has Relative Binding Affinity no lower than 0.2: CCCCNC(=O)CCCCCCCCCCOCC1Cc2ccccc2CN1C(=O)c1ccc(C)cc1 (stereo not drawn) [Compound 9]
label 0
